reported property: melting point

Here is how some compounds turned out for melting point.
Exercise: // lookup melting point for O=C(O)C1=Cc2cc(Cl)ccc2OC1C(F)(F)F (stereo unspecified)
Key: 181 to 184 °C

Exercise: Need melting point, item COc1ccc(OC(=O)c2c(Cl)cccc2Cl)cc1OC1CCCC1
Key: 100 to 101 °C

Next:
Exercise: Item O=C1Nc2ccccc2SCC1c1ccc(Cl)cc1 (stereo unspecified) has what recorded melting point?
Key: 180 °C

Exercise: Report melting point for NC(=O)C1=CN(CCCC(=O)NCCc2ccccc2)C=CC1 please.
Key: 55 to 60 °C

Exercise: Request the reported melting point associated with O=C(O)C(=O)c1ccc(OCOc2ccccc2)cc1
Key: 72 to 74 °C

---

reported property: melting point (°C)
The figure you give is taken to be in °C; do not add the unit.

Look over these answered cases.
Exercise: Find the recorded melting point belonging to O=C(Nc1cccc2[nH]ccc12)c1ccccc1OCCN1CCCCC1 and report it.
Key: 154

Exercise: Endpoint output: melting point of Nc1cccc([C@H]2C[C@H]2NC(=O)Nc2ccc(Cl)cn2)c1 (racemic) . Value?
Key: 178

Pending compound:
Exercise: Quick one: melting point for COc1ccc([PH](=O)c2ccc(OC)cc2)cc1 ?
Key: 126

---

melting point listing for selected molecules.

Exercise: Requested field: melting point. Item: COc1ccc(CNC(=O)[C@@H](NC(=O)[C@H](NCc2ccc(OC)c(OC)c2)[C@H](O)[C@H](Cc2ccccc2)NC(=O)OC(C)(C)C)C(C)C)c(O)c1
Key: 144 °C

Exercise: State the recorded melting point for this entry: CN(Cc1ccccc1)[C@@H](CC(N)=O)C(=O)N[C@@H](Cc1ccccc1)[C@H](O)C(=O)N1CCC[C@H]1C(=O)NC(C)(C)C
Key: 97 to 100 °C

Exercise: Could you share which melting point value was measured for Cn1nnc(COc2nn3c(-c4ccccc4)nnc3cc2-c2ccccc2)n1 ?
Key: 228 to 233 °C

***
Exercise: Name the recorded melting point for CCOC(=O)Cc1ncnc2c([N+](=O)[O-])cccc12 .
Key: 162 to 164 °C

Exercise: Quick check: melting point of CCN(C)C(C)C(=O)Nc1cccc2c1C(=O)c1c(NC(=O)C(C)N(C)CC)cccc1C2=O (configuration not stated) ?
Key: 129 to 130 °C

Exercise: So what does the record say about melting point for Cc1cc(Oc2ccc(Cl)cc2Cl)ccc1C#N ?
Key: 52 to 55 °C

---

reported property: melting point

Completed entries (count: 5):
Exercise: Query: melting point; subject: CCCC(=O)NCCCn1c(C)nc2c(N)nc3ccccc3c21
Key: 222 to 223 °C

Exercise: // query melting point value for entry CSc1nn2c(O)cc(CN(C)C)nc2c1S(=O)(=O)c1ccccc1
Key: > 220 °C

Exercise: Please give the measured melting point for this compound: COC(=O)C=Cc1ccc(OCC(C)NCC(O)c2cccc(Cl)c2)cc1 (stereo not drawn)
Key: 97 to 103 °C

Exercise: Need melting point of COC(=O)C1=C(C)Nc2ccnc(OC(C)C)c2C1c1c(Cl)cccc1Cl (stereo not drawn) , thanks.
Key: 245 °C

Exercise: Would you kindly share the measured melting point for Cc1cc(-n2cncn2)c2cccc(OCc3c(Cl)ccc(S(=O)(=O)N4CCC[C@H]4C(=O)O)c3Cl)c2n1 ?
Key: 146 °C

---
Exercise: Param item = CCOC(=O)c1ccc(N)cc1F ; retrieve measured melting point.
Key: 110 to 112 °C

Exercise: // melting point lookup, key: CCCn1ncc2c(=O)[nH]c(-c3cc(C(=O)O)ccc3OCC)nc21
Key: 277 to 279 °C

Exercise: Please report the recorded melting point for C(#Cc1cc2ccccc2s1)c1ccc(-c2ccccc2)s1 .
Key: 185 to 186 °C
